Molecular target: recombinant eIF4E (Homo sapiens (Human))
Assay: Fluorescence polarization competition assay for eIF4E binding potency
Conditions: inhibition of eIF4E/EDA-m7GDP-ATTO-550 binding by 50%; Table 4B calculated values; read-out: IC50
pIC50: −log10 of the molar value.
parameter: pIC50

Check out these entries, answers already filled in.
| molecule | target_system | parameter | result_number |
| --- | --- | --- | --- |
| Cc1cc(-c2cc(Cl)ccc2OCCn2c(C)nc3cc(F)c(F)c(C#N)c3c2=O)c2scc(C(=O)NS(C)(=O)=O)c2n1 | recombinant eIF4E (Homo sapiens (Human)) | pIC50 | 7.93 |
| Cc1nc2cc(CN(C)C)c(Cl)c(C#N)c2c(=O)n1CCOc1ccc(Cl)cc1-c1ccnc2c(C(=O)O)csc12 | recombinant eIF4E (Homo sapiens (Human)) | pIC50 | 7.46 |
| Cc1nc2cc(C(F)(F)F)c(N3CCN(C)CC3)c(C#N)c2c(=O)n1CCOc1ccc(Cl)cc1 | recombinant eIF4E (Homo sapiens (Human)) | pIC50 | 7.28 |

I = COC(=O)c1sc2cc(-c3cc(Cl)ccc3OCCn3c(C)nc4cc(C(F)(F)F)cc(C#N)c4c3=O)cnc2c1O
II = Cc1nc2cnc(N(C)C3CCN(C4CC(F)(F)C4)CC3)c(C#N)c2c(=O)n1CC#Cc1ccc(Cl)cc1-c1ccnc2c(C(=O)NS(C)(=O)=O)csc12 [compound 1188]
III = Cc1nc2cc(C(F)(F)F)cc(C#N)c2c(=O)n1CCOc1ccc(Cl)cc1-c1coc2c(C(=O)O)ccnc12
Q: Descending sort on pIC50 required. # list labels per requested ordering
A: II, III, I

I = Cc1nc2c(C(F)F)nc(C#N)cc2c(=O)n1CCOc1ccc(Cl)cc1-c1cccc(C(=O)O)c1
II = O=C(O)c1cccc(-c2cc(Cl)ccc2OCCn2cnc3c(F)cccc3c2=O)c1
Q: Lab note: record which item had the higher pIC50, I or II . // respond with label for picked entry
A: I
(I: 6.69, II: 5.64)

---

Target: recombinant eIF4E (Homo sapiens (Human))
Test: Fluorescence polarization competition assay for eIF4E binding potency
Details: inhibition of eIF4E/EDA-m7GDP-ATTO-550 binding by 50%; Table 4B calculated values; read-out: IC50
pIC50: −log10 of the molar value.
parameter: pIC50

| compound_structure | parameter | result_number |
| --- | --- | --- |
| Cc1nc2cc(C(F)(F)F)c(CN(C)C)c(F)c2c(=O)n1CCOc1ccc(Cl)cc1-c1ccnc2c(C(=O)O)csc12 | pIC50 | 7.22 |
| Cc1cc(C#N)c2c(=O)n(CCOc3ccc(Cl)cc3-c3ccnc4c(C(=O)O)csc34)c(C)nc2c1 | pIC50 | 7.26 |
| CCc1cc(-c2cc(Cl)ccc2OCCn2c(C)nc3cc(C(F)(F)F)c(N4CCN(C)CC4)c(C#N)c3c2=O)c2sc(C)c(C(=O)O)c2n1 | pIC50 | 7.41 |
| Cc1nc2cncc(C#N)c2c(=O)n1CCOc1ccc(Cl)cc1-c1ccnc(C(=O)O)c1 | pIC50 | 7.35 |

---

Biological target: recombinant eIF4E (Homo sapiens (Human))
Experiment: Fluorescence polarization competition assay for eIF4E binding potency
Details: fluorescence polarization competition, 75 nM recombinant eIF4E, 20 nM EDA-m7GDP-ATTO-550; IC50 class; read-out: elF4E FP
pIC50: −log10 of the molar value.
parameter: pIC50

Check out these entries, answers already filled in.
| compound | target_system | pIC50 |
| --- | --- | --- |
| Cc1nc2cnc(-c3ccncc3)c(C#N)c2c(=O)n1CC#Cc1ccc(Cl)cc1-c1ccnc2c(C(=O)O)csc12 [compound 770] | recombinant eIF4E (Homo sapiens (Human)) | > 7.30 |
| Cc1nc2cc(C(F)(F)F)c(N3CCN(C)CC3)c(C#N)c2c(=O)n1CC#Cc1ccc(Cl)cc1-c1cccc(C(=O)O)c1 [compound 1154] | recombinant eIF4E (Homo sapiens (Human)) | > 7.30 |

Q: Provide one value: measured pIC50 of Cc1nc2cnc(N3CCN(C4CC(F)(F)C4)CC3)c(C#N)c2c(=O)n1CC#Cc1ccc(Cl)cc1-c1ccnc2c(C(=O)O)csc12 [compound 1163]
A: > 7.30

Q: Provide one value: measured pIC50 of Cc1cc(-c2cc(Cl)ccc2OCCn2c(C)nc3cc(C(F)(F)F)c(C4CCNCC4)cc3c2=O)c2sc(C)c(C(=O)O)c2n1 [compound 877]
A: 6.00 to 7.30

Q: Provide one value: measured pIC50 of CCc1cc(-c2cc(Cl)ccc2OCCn2c(=O)[nH]c3cc(Cl)cc(C#N)c3c2=O)c2scc(C(=O)O)c2n1 [compound 1078]
A: 6.00 to 7.30

Q: Provide one value: measured pIC50 of C#Cc1nc2c(=O)n(CCOc3ccc(Cl)cc3-c3cc(C)nc4c(C(=O)O)csc34)c(C)nc2cc1C(F)(F)F [compound 783]
A: > 7.30

Q: Provide one value: measured pIC50 of Cc1nc2cnc(N3CC4(CN(CCF)C4)C3)c(C#N)c2c(=O)n1CC#Cc1ccc(Cl)cc1-c1ccnc2c(C(=O)O)csc12 [compound 892]
A: > 7.30

Q: Provide one value: measured pIC50 of Cc1nc2cnc(C3=CCC(F)(F)CC3)c(C#N)c2c(=O)n1CCOc1ccc(Cl)cc1-c1ccnc2c(C(=O)O)csc12 [compound 882]
A: > 7.30

---

Biological target: recombinant eIF4E (Homo sapiens (Human), UniProt P06730)
Sequence (P06730 whole entry): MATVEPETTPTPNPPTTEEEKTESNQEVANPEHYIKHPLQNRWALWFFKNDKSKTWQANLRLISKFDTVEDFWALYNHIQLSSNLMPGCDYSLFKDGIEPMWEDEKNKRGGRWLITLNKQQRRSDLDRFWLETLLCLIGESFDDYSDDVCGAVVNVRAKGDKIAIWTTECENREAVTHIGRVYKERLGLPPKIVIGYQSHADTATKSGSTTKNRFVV
Assay: Fluorescence polarization competition assay for eIF4E binding potency
Settings: inhibition of eIF4E/EDA-m7GDP-ATTO-550 binding; calculated IC50 values, Table 4B; read-out: IC50
parameter: IC50 (nM)

Check out these entries, answers already filled in.
| compound | unit_descriptor | IC50 |
| --- | --- | --- |
| Cc1nc2cnc(N(C)C3CCN(CC(F)F)CC3)c(C#N)c2c(=O)n1CC#Cc1ccc(Cl)cc1-c1ccnc2c(C(=O)NO)csc12 [compound 1560] | nM | 6.31 |
| Cc1nc2cnc(N3C[C@H]4CN(CC(F)F)C[C@H]4C3)c(C#N)c2c(=O)n1CCOc1ccc(Cl)cc1-c1ccnc2c(C(=O)O)csc12 [compound 1478] | nM | 13 |
| Cc1cc(-c2cc(Cl)ccc2OCCn2c(C)nc3cnc(N4C[C@H]5C[C@@H](C4)N5C)c(C#N)c3c2=O)c2sc(C)c(C(=O)O)c2n1 [compound 1202] | nM | 19.7 |
| COC(=O)c1csc2c(-c3cc(Cl)ccc3OCCn3c(C)nc4cc(C(F)(F)F)cc(C#N)c4c3=O)ccnc12 [compound 1900] | nM | 2700 |
| CCN(c1ncc2nc(C)n(CC#Cc3ccc(Cl)cc3-c3ccnc4c(C(=O)O)csc34)c(=O)c2c1C#N)C1CCN([C@H]2C[C@H](F)C2)CC1 [compound 1795] | nM | 8.96 |
| CCN(c1ncc2nc(C)n(CC#Cc3ccc(Cl)cc3-c3ccnc4c(C(=O)NS(=O)(=O)c5ccccn5)csc34)c(=O)c2c1C#N)C1CCN([C@H]2C[C@H](OC(F)F)C2)CC1 [compound 1771] | nM | 26.6 |
| Cc1nc2cnc(N3CCN(CC(C(F)(F)F)C(F)(F)F)CC3)c(C#N)c2c(=O)n1CCOc1ccc(Cl)cc1-c1ccnc2c(C(=O)O)csc12 [compound 1359] | nM | 39.7 |
| Cc1nc2cnc(N(C)c3ccncc3)c(C#N)c2c(=O)n1CC#Cc1ccc(Cl)cc1-c1ccnc2c(C(=O)O)csc12 [compound 1569] | nM | 19.5 |
| Cc1nc2cnc(N(C)C3CCN(CC(C)(F)F)CC3)c(C#N)c2c(=O)n1CC#Cc1ccc(Cl)cc1-c1ccnc2c(C(=O)NS(=O)(=O)c3ccc(C(F)(F)F)nc3)csc12 [compound 1674] | nM | 6.5 |

1 = C#Cc1c(-c2cc(Cl)ccc2OCCn2c(C(F)F)nc3cccc(C#N)c3c2=O)csc1C(=O)O [compound 2034]
2 = O=C(O)c1cccc(-c2cc(Cl)ccc2OCCn2c(Nc3ccccc3)nc3c(O)nccc3c2=O)c1 [compound 2000]
3 = Cc1cc(-c2cc(N3CC(F)(F)C3)ccc2OCCn2c(C)nc3cc(C(F)(F)F)c(N4CC(F)(F)C4)c(C#N)c3c2=O)c2scc(C(=O)O)c2n1 [compound 2036]
4 = Cc1nc2cnc(N(C)C3CCN(C4CC(F)(F)C4)CC3)c(C#N)c2c(=O)n1CC#Cc1ccc(Cl)cc1-c1ccnc2c(C(=O)NS(=O)(=O)CF)csc12 [compound 1817]
Q: Descending sort on IC50 required. # list labels per requested ordering
A: 2, 3, 4, 1
(2: 18200 nM, 3: 38.4 nM, 4: 25.8 nM, 1: 6.2 nM)

---

Molecular target: recombinant eIF4E (Homo sapiens (Human), UniProt P06730)
Assay: Fluorescence polarization competition assay for eIF4E binding potency
Details: inhibition of eIF4E/EDA-m7GDP-ATTO-550 binding by 50%; Table 4B calculated values; read-out: IC50
parameter: IC50 (µM)

| compound_structure | target_system | IC50, µM |
| --- | --- | --- |
| Cc1cc(-c2cc(Cl)ccc2OCCn2c(C)nc3cc(F)c(-c4cnc(C)s4)c(C#N)c3c2=O)c2scc(C(=O)O)c2n1 | recombinant eIF4E (Homo sapiens (Human), UniProt P06730) | 0.0696 |
| Cc1cc(-c2cc(Cl)ccc2OCCn2c(C)nc3cc(C(F)(F)F)c(-c4cnc(C)c(C)n4)c(C#N)c3c2=O)c2scc(C(=O)O)c2n1 | recombinant eIF4E (Homo sapiens (Human), UniProt P06730) | 0.00556 |
| Cc1nc2cc(C(F)(F)F)cc(C#N)c2c(=O)n1CCOc1cnc(Cl)nc1-c1ccnc2c(C(=O)O)csc12 | recombinant eIF4E (Homo sapiens (Human), UniProt P06730) | 0.0511 |
| Cc1nc2cnc(N3CCN(C(C)(C)CC(F)(F)F)CC3)c(C#N)c2c(=O)n1CCOc1ccc(Cl)cc1-c1ccnc2c(C(=O)O)csc12 | recombinant eIF4E (Homo sapiens (Human), UniProt P06730) | 0.0127 |
| Cc1nc2cc(C(F)(F)F)cc(C#N)c2c(=O)n1CCOc1ccc(Cl)cc1-c1ccc(C(=O)O)c2ncsc12 | recombinant eIF4E (Homo sapiens (Human), UniProt P06730) | 0.0707 |

1 = Cc1nc2cc(C(F)(F)F)c(Cl)c(C#N)c2c(=O)n1CC#Cc1ccc(Cl)cc1-c1ccnc2c(C(=O)O)csc12
2 = C#Cc1c(C(=O)O)cccc1-c1cc(Cl)ccc1OCCn1cnc2cnc(C#N)cc2c1=O
Q: Lab note: record which item had the higher IC50, 1 or 2 . // respond with label for picked entry
A: 2

P = Cc1cc(-c2cc(Cl)ccc2OCCn2c(C)nc3cc(C(F)(F)F)c(CN4CCN(C)CC4)c(C#N)c3c2=O)c2scc(C(=O)O)c2n1
Q = Cc1cc(-c2cc(Cl)ccc2OCCn2c(C)nc3cc(C(F)(F)F)c(-n4cccn4)c(C#N)c3c2=O)c2scc(C(=O)O)c2n1
R = Cc1cc(-c2cc(Cl)ccc2OCCn2c(C)nc3c(C)nc(C(F)F)c(C#N)c3c2=O)c2scc(C(=O)O)c2n1
S = Cc1nc2cc(Cl)c(F)c(C#N)c2c(=O)n1CCOc1ccc(Cl)cc1-c1ccnc2c(C(=O)O)csc12
Q: Descending sort on IC50 required. # list labels per requested ordering
A: R, S, Q, P
(R: 0.031 µM, S: 0.0203 µM, Q: 0.0129 µM, P: 0.00859 µM)

1 = Cc1nc2cnc(N(C)[C@H]3CC[C@@H](N4CC(F)(F)C4)CC3)c(C#N)c2c(=O)n1CC#Cc1ccc(Cl)cc1-c1ccnc2c(C(=O)O)csc12
2 = CCN(c1ncc2nc(C)n(CC#Cc3ccc(Cl)cc3-c3ccnc4c(C(=O)O)csc34)c(=O)c2c1C#N)C1CCN(C2CC(F)(F)C2)CC1
Q: Hey, between 1 and 2 which has a smaller measured IC50? // respond with label for picked entry
A: 2
(2: 0.00932 µM, 1: 0.0335 µM)
